This collection of values is drawn from paper PMC4160279.

tested on: NoV VA387 P dimer; assay: Direct ESI-MS assay, NoV VA387 P dimer; parameters: species or system human NoV VA387 (GII.4); conditions: intrinsic (per binding site) association constant; aqueous ammonium acetate (200 mM), pH 7, 25 °C
PROPERTY_LABEL: Ka,int P dimer VA387 (M^–1)

compound="CC(=O)N[C@H]1[C@H](O[C@@H]2[C@H](O[C@]3(C(=O)O)C[C@H](O)[C@@H](NC(C)=O)[C@H]([C@H](O)[C@H](O)CO)O3)[C@@H](O)[C@H](O[C@H]3[C@H](O)[C@@H](O)C(O)O[C@@H]3CO)O[C@@H]2CO)O[C@H](CO)[C@H](O)[C@@H]1O[C@@H]1O[C@H](CO)[C@H](O)[C@H](O)[C@H]1O (stereo partly drawn) [GM1a]" property_label="Ka,int P dimer VA387" observed_result=350
compound="CC(=O)N[C@H]1[C@H](O[C@@H]2[C@H](O[C@]3(C(=O)O)C[C@H](O)[C@@H](NC(C)=O)[C@H]([C@H](O)[C@@H](CO)O[C@]4(C(=O)O)C[C@H](O)[C@@H](NC(C)=O)[C@H]([C@H](O)[C@H](O)CO)O4)O3)[C@@H](O)[C@H](O[C@H]3[C@H](O)[C@@H](O)C(O)O[C@@H]3CO)O[C@@H]2CO)O[C@H](CO)[C@H](O)[C@@H]1O (stereo partly drawn) [GD2]" property_label="Ka,int P dimer VA387" observed_result=150
compound="CC(=O)N[C@H]1[C@H](O[C@@H]2[C@H](O)[C@@H](O)[C@H](O[C@H]3[C@H](O)[C@@H](O)C(O)O[C@@H]3CO)O[C@@H]2CO)O[C@H](CO)[C@H](O)[C@@H]1O[C@@H]1O[C@H](CO)[C@H](O)[C@H](O[C@]2(C(=O)O)C[C@H](O)[C@@H](NC(C)=O)[C@H]([C@H](O)[C@H](O)CO)O2)[C@H]1O (stereo partly drawn) [GM1b]" property_label="Ka,int P dimer VA387" observed_result=180
